FYI, the data here is from ChEMBL document CHEMBL5584339.

MEASUREMENT NOTES: Cytotoxicity against african green monkey Vero cells incubated for 48 hrs by CCK8 assay
Format: toxicity, cell-based, Chlorocebus sabaeus

{"COMPOUND": "CO[C@H]1/C=C/O[C@@]2(C)Oc3c(C)c(O)c4c(O)c(c(/C=N/N5CCN(C)CC5)c(O)c4c3C2=O)NC(=O)/C(C)=C\\C=C\\[C@H](C)[C@H](O)[C@@H](C)[C@@H](O)[C@@H](C)[C@H](OC(C)=O)[C@@H]1C [RIFAMPIN]", "IC50 at 48 h": "> 100 µg/mL"}
{"COMPOUND": "C=CCSc1nc2c(c(=O)[nH]1)C(c1ccc(OC)cc1[N+](=O)[O-])CC(=O)N2 (stereo not drawn)", "IC50 at 48 h": "> 100 µg/mL"}
{"COMPOUND": "COc1ccc(C2CC(=O)Nc3nc(SC)[nH]c(=O)c32)cc1O (stereo not drawn)", "IC50 at 48 h": "> 100 µg/mL"}

---

MEASUREMENT NOTES: Selectivity index, ratio of IC50 for african green monkey Vero cells to IC50 for Mycobacterium tuberculosis H37Rv
Type: toxicity
SETUP CONDITIONS: read-out: Ratio IC50

{"COMPOUND": "CCCCSc1nc2c(c(=O)[nH]1)C(c1ccc(OC)cc1)CC(=O)N2 (stereo not given)", "PREFIX OPERATOR": "=", "selectivity ratio": 93.1}
{"COMPOUND": "COc1ccc(C2CC(=O)Nc3nc(SC)[nH]c(=O)c32)cc1 (stereo not given)", "PREFIX OPERATOR": "=", "selectivity ratio": 3.32}
{"COMPOUND": "CO[C@H]1/C=C/O[C@@]2(C)Oc3c(C)c(O)c4c(O)c(c(/C=N/N5CCN(C)CC5)c(O)c4c3C2=O)NC(=O)/C(C)=C\\C=C\\[C@H](C)[C@H](O)[C@@H](C)[C@@H](O)[C@@H](C)[C@H](OC(C)=O)[C@@H]1C [RIFAMPIN]", "PREFIX OPERATOR": ">", "selectivity ratio": 5000}
{"COMPOUND": "C=CCSc1nc2c(c(=O)[nH]1)C(c1ccc(OC)cc1)CC(=O)N2 (stereo not given)", "PREFIX OPERATOR": "=", "selectivity ratio": 82.2}
{"COMPOUND": "C=CCSc1nc2c(c(=O)[nH]1)C(c1ccc(OCCC)cc1)CC(=O)N2 (stereo not given)", "PREFIX OPERATOR": "=", "selectivity ratio": 2.31}
{"COMPOUND": "CCCSc1nc2c(c(=O)[nH]1)C(c1ccc(OC(C)C)cc1)CC(=O)N2 (stereo not given)", "PREFIX OPERATOR": "=", "selectivity ratio": 11.7}
{"COMPOUND": "CCCSc1nc2c(c(=O)[nH]1)C(c1ccc(OC)cc1O)CC(=O)N2 (stereo not given)", "PREFIX OPERATOR": "=", "selectivity ratio": 56.9}
{"COMPOUND": "CCCCSc1nc2c(c(=O)[nH]1)C(c1ccc(OC)c(O)c1)CC(=O)N2 (stereo not given)", "PREFIX OPERATOR": "=", "selectivity ratio": 12.6}
{"COMPOUND": "CCCSc1nc2c(c(=O)[nH]1)C(c1ccccc1)CC(=O)N2 (stereo not given)", "PREFIX OPERATOR": "=", "selectivity ratio": 3.3}
{"COMPOUND": "C=CCSc1nc2c(c(=O)[nH]1)C(c1ccc(OC)cc1O)CC(=O)N2 (stereo not given)", "PREFIX OPERATOR": ">", "selectivity ratio": 101}
{"COMPOUND": "CCCSc1nc2c(c(=O)[nH]1)C(c1ccc(OC)cc1[N+](=O)[O-])CC(=O)N2 (racemic)", "PREFIX OPERATOR": ">", "selectivity ratio": 833}
{"COMPOUND": "CCCOc1ccc(C2CC(=O)Nc3nc(SCCC)[nH]c(=O)c32)cc1O (stereo not given)", "PREFIX OPERATOR": "=", "selectivity ratio": 21}
{"COMPOUND": "CCCSc1nc2c(c(=O)[nH]1)C(c1ccc(OC)c(O)c1)CC(=O)N2 (stereo not given)", "PREFIX OPERATOR": ">", "selectivity ratio": 82.1}
{"COMPOUND": "CCCCSc1nc2c(c(=O)[nH]1)C(c1ccc(OC)cc1O)CC(=O)N2 (stereo not given)", "PREFIX OPERATOR": "=", "selectivity ratio": 8.87}
{"COMPOUND": "C=CCSc1nc2c(c(=O)[nH]1)C(c1ccc(OC)cc1[N+](=O)[O-])CC(=O)N2 (stereo not given)", "PREFIX OPERATOR": ">", "selectivity ratio": 200}

---

MEASUREMENT NOTES: Selectivity index, ratio of IC50 for african green monkey Vero cells to IC50 for Mycobacterium tuberculosis H37Rv
Format: toxicity
SETUP CONDITIONS: read-out: Ratio IC50

{"COMPOUND": "CCCOc1ccc(C2CC(=O)Nc3nc(SC)[nH]c(=O)c32)cc1 (stereo not given)", "selectivity ratio": "< 5.4"}
{"COMPOUND": "C=CCSc1nc2c(c(=O)[nH]1)C(c1ccc(OC)c(O)c1)CC(=O)N2 (stereo not given)", "selectivity ratio": "> 45.7"}
{"COMPOUND": "NNC(=O)c1ccncc1", "selectivity ratio": "> 2000"}
{"COMPOUND": "CCCSc1nc2c(c(=O)[nH]1)C(c1ccc(OC)c(OC)c1)CC(=O)N2 (stereo not given)", "selectivity ratio": "< 2"}
{"COMPOUND": "C=CCSc1nc2c(c(=O)[nH]1)C(c1ccc(OCC)cc1)CC(=O)N2 (stereo not given)", "selectivity ratio": "> 500"}

---

The entries below come with measured IC50 at 48 h values attached.
MEASUREMENT NOTES: Cytotoxicity against african green monkey Vero cells incubated for 48 hrs by CCK8 assay
Type: toxicity, cell-based, Chlorocebus sabaeus
RECORDED ENDPOINT: IC50 at 48 h

{"MOLECULE": "CCCSc1nc2c(c(=O)[nH]1)[C@@H](c1ccc(OC)cc1)CC(=O)N2", "RECORDED ENDPOINT": "IC50 at 48 h", "REPORTED VALUE": "> 64 mg/L"}
{"MOLECULE": "CCCSc1nc2c(c(=O)[nH]1)[C@H](c1ccc(OC)cc1)CC(=O)N2", "RECORDED ENDPOINT": "IC50 at 48 h", "REPORTED VALUE": "> 64 mg/L"}
{"MOLECULE": "CCCSc1nc2c(c(=O)[nH]1)C(c1ccc(OC)cc1N)CC(=O)N2 (stereo not given)", "RECORDED ENDPOINT": "IC50 at 48 h", "REPORTED VALUE": "> 100 mg/L"}
{"MOLECULE": "CCCSc1nc2c(c(=O)[nH]1)C(c1ccc(OC)c(O)c1)CC(=O)N2 (stereo not given)", "RECORDED ENDPOINT": "IC50 at 48 h", "REPORTED VALUE": "> 100 mg/L"}
{"MOLECULE": "COc1ccc(C2CC(=O)Nc3nc(SC)[nH]c(=O)c32)c(O)c1 (stereo not given)", "RECORDED ENDPOINT": "IC50 at 48 h", "REPORTED VALUE": "> 100 mg/L"}
{"MOLECULE": "CCCSc1nc2c(c(=O)[nH]1)C(c1ccc(OC)cc1[N+](=O)[O-])CC(=O)N2 (racemic)", "RECORDED ENDPOINT": "IC50 at 48 h", "REPORTED VALUE": "> 100 mg/L"}
{"MOLECULE": "C=CCSc1nc2c(c(=O)[nH]1)C(c1ccc(OCC)cc1)CC(=O)N2 (stereo not given)", "RECORDED ENDPOINT": "IC50 at 48 h", "REPORTED VALUE": "> 100 mg/L"}
{"MOLECULE": "CCCSc1nc2c(c(=O)[nH]1)C(c1ccc(OC)c(N)c1)CC(=O)N2 (stereo not given)", "RECORDED ENDPOINT": "IC50 at 48 h", "REPORTED VALUE": "> 100 mg/L"}
{"MOLECULE": "CCCSc1nc2c(c(=O)[nH]1)[C@@H](c1ccc(OC)cc1[N+](=O)[O-])CC(=O)N2", "RECORDED ENDPOINT": "IC50 at 48 h", "REPORTED VALUE": "> 64 mg/L"}
{"MOLECULE": "COc1ccc(C2CC(=O)Nc3nc(SC(C)C)[nH]c(=O)c32)cc1 (stereo not given)", "RECORDED ENDPOINT": "IC50 at 48 h", "REPORTED VALUE": "> 100 mg/L"}

---

MEASUREMENT NOTES: Cytotoxicity against african green monkey Vero cells incubated for 48 hrs by CCK8 assay
Type: toxicity, cell-based, Chlorocebus sabaeus

{"COMPOUND": "C=CCSc1nc2c(c(=O)[nH]1)C(c1ccc(OC)cc1O)CC(=O)N2 (stereo not drawn)", "IC50 at 48 h": "> 100 µg/mL"}
{"COMPOUND": "NNC(=O)c1ccncc1 [ISONIAZID]", "IC50 at 48 h": "> 100 µg/mL"}
{"COMPOUND": "CCCSc1nc2c(c(=O)[nH]1)[C@H](c1ccc(OC)cc1[N+](=O)[O-])CC(=O)N2", "IC50 at 48 h": "> 64 µg/mL"}
